Reported Maximum mean fluorescence intensity values for the following binders.
Assay System: T1, monkey CD22 on HEK293T-monkey CD22 cells (monkey)
T1 construct: full-length entry expressed on stably transfected HEK293T cells
T1 chain: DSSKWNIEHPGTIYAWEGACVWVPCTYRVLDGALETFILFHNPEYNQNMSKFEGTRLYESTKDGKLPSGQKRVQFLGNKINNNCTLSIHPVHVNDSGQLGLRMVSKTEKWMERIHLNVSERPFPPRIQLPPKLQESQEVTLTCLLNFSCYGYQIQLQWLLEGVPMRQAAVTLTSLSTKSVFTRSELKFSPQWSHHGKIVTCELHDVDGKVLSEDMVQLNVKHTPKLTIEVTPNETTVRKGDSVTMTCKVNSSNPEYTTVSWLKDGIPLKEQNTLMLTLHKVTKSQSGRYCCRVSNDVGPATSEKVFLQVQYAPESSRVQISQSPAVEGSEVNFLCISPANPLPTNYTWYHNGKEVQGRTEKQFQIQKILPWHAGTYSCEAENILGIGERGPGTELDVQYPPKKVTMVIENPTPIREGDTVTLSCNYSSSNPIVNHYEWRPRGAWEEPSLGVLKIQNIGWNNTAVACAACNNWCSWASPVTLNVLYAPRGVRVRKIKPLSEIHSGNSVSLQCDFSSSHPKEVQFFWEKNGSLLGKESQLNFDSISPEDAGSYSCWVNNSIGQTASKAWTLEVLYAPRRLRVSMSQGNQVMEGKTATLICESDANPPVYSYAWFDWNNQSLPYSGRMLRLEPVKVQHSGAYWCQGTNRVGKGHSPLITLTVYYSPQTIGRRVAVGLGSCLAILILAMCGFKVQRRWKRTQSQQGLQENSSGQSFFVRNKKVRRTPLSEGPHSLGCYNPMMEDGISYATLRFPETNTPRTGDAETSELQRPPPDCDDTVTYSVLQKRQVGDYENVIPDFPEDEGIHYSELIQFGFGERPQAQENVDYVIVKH
Assay Summary: FACS, HEK293T-monkey CD22 cells
Result Type: Maximum mean fluorescence intensity (MFI)

[[record]]
binder = "HA22-hIgG1 (antibody, V domains shown) VH: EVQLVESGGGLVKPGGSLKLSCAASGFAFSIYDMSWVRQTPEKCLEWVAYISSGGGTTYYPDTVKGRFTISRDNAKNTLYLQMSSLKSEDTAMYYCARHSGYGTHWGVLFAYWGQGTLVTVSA VL: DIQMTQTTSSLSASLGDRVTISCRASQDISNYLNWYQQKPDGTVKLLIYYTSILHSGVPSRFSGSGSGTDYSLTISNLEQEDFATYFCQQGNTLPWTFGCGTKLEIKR"
endpoint_result = 31200

[[record]]
binder = "F2.343.16 (antibody, human IgG1, lambda, V domains shown, human-murine chimeric IgG1 lambda; VL name legible) VH: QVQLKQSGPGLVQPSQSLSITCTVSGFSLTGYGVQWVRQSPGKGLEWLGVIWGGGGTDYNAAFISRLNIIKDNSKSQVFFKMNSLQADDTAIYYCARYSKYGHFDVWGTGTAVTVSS VL: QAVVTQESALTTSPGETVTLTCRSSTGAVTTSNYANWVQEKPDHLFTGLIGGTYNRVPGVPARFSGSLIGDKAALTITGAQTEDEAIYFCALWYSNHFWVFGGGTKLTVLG"
endpoint_result = 83

[[record]]
binder = "m971-hIgG1 (antibody, V domains shown, control anti-CD22 antibody; variable regions from US 8,591,889 on human IgG1 constant regions) VH: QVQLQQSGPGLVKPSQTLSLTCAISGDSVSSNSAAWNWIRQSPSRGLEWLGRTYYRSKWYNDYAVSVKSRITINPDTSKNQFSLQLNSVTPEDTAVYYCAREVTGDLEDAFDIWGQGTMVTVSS VL: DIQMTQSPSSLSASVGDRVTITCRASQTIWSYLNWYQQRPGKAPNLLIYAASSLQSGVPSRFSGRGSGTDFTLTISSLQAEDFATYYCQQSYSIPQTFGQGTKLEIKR"
endpoint_result = 104

